Sourced from paper PMC9780857

assayOverview: Highest soluble concentration in assay buffer (determined visually)
Assay type: physicochemical
testParameters: assay buffer (HBSS/HEPES), aqueous buffer, HBSS/HEPES pH 7.4
endpoint: solubility

INSERT INTO results (structure, reportedmeasurement) VALUES
  ('COc1cc2c(cc1OC)CN(CCc1ccc(NC(=O)c3cccc4c(=O)c5cccc(OC)c5[nH]c34)cc1)CC2', '100 µM');

---

inhibition at 10 µM listing for selected molecules.
testedSystem: hOCT2 (Homo sapiens)
Sequence (O15244 whole entry): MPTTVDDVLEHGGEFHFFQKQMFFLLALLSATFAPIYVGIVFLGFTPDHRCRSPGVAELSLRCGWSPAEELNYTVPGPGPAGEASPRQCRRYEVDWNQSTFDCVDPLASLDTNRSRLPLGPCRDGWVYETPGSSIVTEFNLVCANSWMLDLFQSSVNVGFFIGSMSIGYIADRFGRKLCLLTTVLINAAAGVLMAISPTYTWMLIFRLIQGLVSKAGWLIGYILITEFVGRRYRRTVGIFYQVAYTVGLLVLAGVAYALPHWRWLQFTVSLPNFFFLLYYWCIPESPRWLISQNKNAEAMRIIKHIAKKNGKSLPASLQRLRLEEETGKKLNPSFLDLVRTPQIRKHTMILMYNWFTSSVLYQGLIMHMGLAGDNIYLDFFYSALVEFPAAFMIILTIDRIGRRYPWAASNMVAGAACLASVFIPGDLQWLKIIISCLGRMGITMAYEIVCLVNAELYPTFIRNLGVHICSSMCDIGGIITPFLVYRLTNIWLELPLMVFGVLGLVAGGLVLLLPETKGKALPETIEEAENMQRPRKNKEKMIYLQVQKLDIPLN
assayOverview: Inhibition of hOCT2-mediated 14C-metformin uptake in transfected HEK293 cells
Type: cell-based
Parameters: expressed in transfected cells; host or cells: HEK293 (stably transfected)
testParameters: HEK293, 10 µM test compound; 1 µM [14C]metformin, 2 min, HEK293; negative = stimulation; read-out: Inhibitory Effects (%) hOCT2 10 µM Mean
endpoint: inhibition at 10 µM (%)

INSERT INTO measurements (molecule, endpoint, unit, reportedmeasurement) VALUES
  ('CC(C)c1nc(CN(C)C(=O)N[C@H](C(=O)N[C@@H](Cc2ccccc2)C[C@H](O)[C@H](Cc2ccccc2)NC(=O)OCc2cncs2)C(C)C)cs1', 'inhibition at 10 µM', '%', -10),
  ('CCCCc1oc2ccccc2c1C(=O)c1cc(I)c(OCCN(CC)CC)c(I)c1', 'inhibition at 10 µM', '%', -10),
  ('O[C@@H](COc1cccc2ncccc12)CN1CCN([C@@H]2c3ccccc3[C@@H]3[C@H](c4ccccc42)C3(F)F)CC1', 'inhibition at 10 µM', '%', -10),
  ('COC(=O)[C@H]1[C@H]2C[C@@H]3c4[nH]c5cc(OC)ccc5c4CCN3C[C@H]2C[C@@H](OC(=O)c2cc(OC)c(OC)c(OC)c2)[C@@H]1OC', 'inhibition at 10 µM', '%', -13),
  ('CN/C(=N/CCSCc1nc[nH]c1C)NC#N', 'inhibition at 10 µM', '%', -50),
  ('CNC(=C[N+](=O)[O-])NCCSCc1ccc(CN(C)C)o1', 'inhibition at 10 µM', '%', -43),
  ('Clc1cccc(Cl)c1N=C1NCCN1', 'inhibition at 10 µM', '%', 60),
  ('CC(=O)N1CCN(c2ccc(OCC3COC(Cn4ccnc4)(c4ccc(Cl)cc4Cl)O3)cc2)CC1 (centres unmarked)', 'inhibition at 10 µM', '%', 31);

---

testedSystem: mOct2 (Mus musculus, UniProt O70577)
Sequence (O70577 whole entry): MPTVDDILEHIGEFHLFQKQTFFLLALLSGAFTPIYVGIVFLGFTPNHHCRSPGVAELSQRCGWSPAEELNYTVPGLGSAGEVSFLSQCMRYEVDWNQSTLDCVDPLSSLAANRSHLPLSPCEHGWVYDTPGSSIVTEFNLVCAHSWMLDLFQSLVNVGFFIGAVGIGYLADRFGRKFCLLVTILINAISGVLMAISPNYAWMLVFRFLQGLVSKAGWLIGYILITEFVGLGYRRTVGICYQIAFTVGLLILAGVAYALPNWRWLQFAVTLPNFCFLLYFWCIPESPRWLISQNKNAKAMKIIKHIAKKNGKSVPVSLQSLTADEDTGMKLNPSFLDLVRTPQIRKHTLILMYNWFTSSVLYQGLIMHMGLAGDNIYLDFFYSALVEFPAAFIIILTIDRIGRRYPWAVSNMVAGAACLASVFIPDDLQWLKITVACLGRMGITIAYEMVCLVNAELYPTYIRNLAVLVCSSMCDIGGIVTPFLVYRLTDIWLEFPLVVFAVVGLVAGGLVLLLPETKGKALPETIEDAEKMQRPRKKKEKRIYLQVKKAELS
assayOverview: Inhibition of mOct2-mediated 14C-metformin uptake in transfected HEK293 cells
Assay type: cell-based
Set-up: expressed in transfected cells; host or cells: HEK293 (stably transfected)
testParameters: 10 µM test compound; 1 µM [14C]metformin, 2 min, HEK293; negative = stimulation
endpoint: Inhibitory Effects (%) mOct2 10 µM Mean

INSERT INTO results (structure, endpoint, unit, reportedmeasurement) VALUES
  ('CO/C=C(/C(=O)OC)c1ccccc1Oc1cc(Oc2ccccc2C#N)ncn1', 'Inhibitory Effects (%) mOct2 10 µM Mean', '%', '−6'),
  ('Clc1cccc(Cl)c1N=C1NCCN1', 'Inhibitory Effects (%) mOct2 10 µM Mean', '%', 54),
  ('CCN1/C(=C/c2ccc3ccccc3[n+]2CC)C=Cc2ccccc21.[I-]', 'Inhibitory Effects (%) mOct2 10 µM Mean', '%', 72);
